Reference for the values: patent US11247994B2

- STUDY SYSTEM: TrxR/Trx-1 (Homo sapiens, UniProt P10599)
- Sequence (P10599 2-105 limits assumed): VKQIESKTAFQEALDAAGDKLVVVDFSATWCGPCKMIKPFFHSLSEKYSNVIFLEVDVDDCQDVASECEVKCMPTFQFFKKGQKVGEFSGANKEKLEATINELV
- TEST DESCRIPTION: Ellman test, inhibition of TrxR/Trx-1 activity
- Assay type: biochemical
- EXPERIMENTAL PARAMETERS: Ellman reaction, 37° C. 30 min, absorbance 412 nm; read-out: IC50, inhibition of TrxR/Trx-1 activity
pIC50: −log10 of the molar value.
READOUT LABEL: pIC50

COMPOUND	STUDY SYSTEM	READOUT LABEL	RECORDED NUMBER
CCC(C)SSc1nc(N)nc2c1ncn2C1C[C@H](O)[C@@H](CO)O1 (some centres unmarked) [Compound A, 6-(sec-butyldithio)-2′-deoxyguanosine]	TrxR/Trx-1 (Homo sapiens, UniProt P10599)	pIC50	4.50

A = CCC(C)SSc1ncc[nH]1 (centres unmarked) [PX-12, 1-methylpropyl-2-imidazolyl disulfide, reference compound]
B = CC(C)(C)SSc1nc(N)nc2c1ncn2C1C[C@H](O)[C@@H](CO)O1 (some centres unmarked) [Compound C, 6-(tert-butyldithio)-2′-deoxyguanosine]
Which has the higher pIC50, A or B ? Your answer should be the label of the entry you select.
A
(A: 5.59, B: 4.32)
